system: HeLa; assay: Inhibition of recombinant APC/C/cdc20 (unknown origin) in metaphase-synchronized human HeLa cells co-expressing GST-tagged UBA1/UBE2C/methylated ubiquitin using RD680-labeled securin as substrate at 100 uM measured after 45 mins in presence of ATP by immuno-precipitation method; format: cell-based
Active and inactive are the calls of the source. The calls are words filed in the database; no cut-off is given here. Bridge positions count the residues as written; N and C are the ends. Peptide text beside a SMILES is read from it.
Property: inhibition

Compound	Property	Reported result
CC(=O)N[C@@H](CCCNC(=N)N)C(=O)N[C@H]1CSSC[C@@H](C(=O)N[C@@H](CCCNC(=N)N)C(N)=O)NC(=O)[C@H](Cc2c[nH]c3ccccc23)NC(=O)[C@H](Cc2ccccc2)NC(=O)[C@H]([C@@H](C)O)NC(=O)[C@H](CCCNC(=N)N)NC(=O)[C@@H]2CCCN2C(=O)CNC(=O)[C@H](Cc2c[nH]c3ccccc23)NC(=O)[C@H](Cc2cnc[nH]2)NC1=O (Ac-RCHWGPRTFWCR-NH2; disulfide 2-11)	inhibition	Active
CC(=O)N[C@@H](CCCNC(=N)N)C(=O)N[C@H]1CSSC[C@@H](C(=O)N[C@@H](CCCNC(=N)N)C(N)=O)NC(=O)[C@H](Cc2c[nH]c3ccccc23)NC(=O)[C@H](Cc2ccccc2)NC(=O)[C@H]([C@@H](C)O)NC(=O)[C@H](CCC(=O)O)NC(=O)[C@@H]2CCCN2C(=O)CNC(=O)[C@H](Cc2c[nH]c3ccccc23)NC(=O)[C@H](Cc2cnc[nH]2)NC1=O (Ac-RCHWGPETFWCR-NH2; disulfide 2-11)	inhibition	Active
